- test: Persulfide release from compounds 4a and 4b with H2O2 monitored by fluorescence
- Format: physicochemical
- measurement.setup: PBS buffer with 200 μM H2O2 and 100 μM CTAB; 20 μM compound, 200 μM H2O2, 100 μM CTAB, PBS pH 7.4, 37° C., pseudo first-order; read-out: half-life of reaction with H2O2 (persulfide release)
reported.endpoint: half-life at 20 μM (h)
Unit h implied. Number only.

Name the recorded half-life at 20 μM of the compound listed here: CC(C)(Cc1ccccc1B1OC(C)(C)C(C)(C)O1)C(=O)SSc1ccccc1C(=O)Oc1ccc2ccc(=O)oc2c1 [compound 4a]
1.01

Data origin, for the record: patent US20230227477A1
